biological target: human KDR protein in HEK-293 cells (Homo sapiens (Human)); test: KDR Cell Assay (phospho-KDR in HEK-293 cells expressing inducible KDR); format: cell-based; conditions: pKDR Cell HEK 10% FBS IC50, HEK-293 cells expressing inducible KDR, VEGF stimulated, 10% FBS
VALUE_TYPE: IC50 (nM)

STRUCTURE_NOTATION	IC50, nM
Cn1cc(-c2cc(-c3ccc(N4CCN(C(=O)N5CCC[C@H]5C#N)CC4)nc3)c3c(C#N)cnn3c2)cn1	869

A: CC(C)NC(=O)C1CCN(c2ccc(-c3cc(-c4cnn(C)c4)cn4ncc(C#N)c34)cn2)CC1
B: Cn1cc(-c2cc(-c3ccc(N4CCN(C(=O)N[C@@H]5CCOC5)CC4)nc3)c3c(C#N)cnn3c2)cn1
### Prompt Between A and B , whose recorded IC50 is greater? Return value: the label identifying the chosen record.
### Response B
(B: 1370 nM, A: 949 nM)

---

Target: human KDR protein in HEK-293 cells (Homo sapiens (Human), UniProt P35968)
Sequence (P35968 20-1356): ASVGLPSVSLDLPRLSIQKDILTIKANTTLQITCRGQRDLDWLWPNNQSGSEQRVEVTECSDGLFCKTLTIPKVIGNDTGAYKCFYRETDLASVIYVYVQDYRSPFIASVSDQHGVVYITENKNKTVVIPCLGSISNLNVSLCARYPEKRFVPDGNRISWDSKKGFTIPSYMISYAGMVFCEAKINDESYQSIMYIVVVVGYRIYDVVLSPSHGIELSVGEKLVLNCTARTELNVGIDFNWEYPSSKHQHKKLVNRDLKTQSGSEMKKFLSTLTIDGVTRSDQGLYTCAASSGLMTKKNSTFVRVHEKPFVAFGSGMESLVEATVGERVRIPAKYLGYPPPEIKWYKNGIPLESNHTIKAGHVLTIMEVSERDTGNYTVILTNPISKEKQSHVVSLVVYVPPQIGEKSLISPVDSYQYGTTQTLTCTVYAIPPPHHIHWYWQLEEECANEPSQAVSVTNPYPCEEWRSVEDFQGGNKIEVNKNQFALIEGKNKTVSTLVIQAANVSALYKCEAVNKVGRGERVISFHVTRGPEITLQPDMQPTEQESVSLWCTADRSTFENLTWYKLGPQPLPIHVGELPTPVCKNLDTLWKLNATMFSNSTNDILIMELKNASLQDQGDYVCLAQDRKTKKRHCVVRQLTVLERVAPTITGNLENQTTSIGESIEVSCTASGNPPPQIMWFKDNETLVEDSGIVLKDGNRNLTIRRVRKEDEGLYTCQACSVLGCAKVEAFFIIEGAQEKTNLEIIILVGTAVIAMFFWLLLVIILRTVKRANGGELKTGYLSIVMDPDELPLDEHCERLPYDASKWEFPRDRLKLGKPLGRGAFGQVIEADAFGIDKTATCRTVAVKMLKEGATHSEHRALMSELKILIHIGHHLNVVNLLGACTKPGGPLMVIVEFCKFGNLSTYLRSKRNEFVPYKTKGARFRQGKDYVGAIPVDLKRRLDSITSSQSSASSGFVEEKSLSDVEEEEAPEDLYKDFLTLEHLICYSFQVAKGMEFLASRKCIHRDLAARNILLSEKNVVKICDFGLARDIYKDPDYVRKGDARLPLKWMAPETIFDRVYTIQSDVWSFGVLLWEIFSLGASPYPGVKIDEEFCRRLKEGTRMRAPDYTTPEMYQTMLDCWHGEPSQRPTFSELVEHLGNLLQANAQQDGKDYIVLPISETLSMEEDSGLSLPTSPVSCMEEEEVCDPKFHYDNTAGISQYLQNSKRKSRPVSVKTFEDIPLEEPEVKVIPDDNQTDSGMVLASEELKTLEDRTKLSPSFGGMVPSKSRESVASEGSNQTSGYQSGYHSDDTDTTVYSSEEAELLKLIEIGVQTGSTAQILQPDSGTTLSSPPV
Assay: KDR Cell Assay (phospho-KDR in HEK-293 cells expressing inducible KDR)
Format: cell-based
Conditions: pKDR Cell HEK 10% FBS IC50, HEK-293 cells expressing inducible KDR, VEGF stimulated, 10% FBS
Experimental: The cellular potency of a compound inhibiting KDR kinase was determined in HEK-293 cells expressing an inducible human KDR protein. […] The cells were incubated for 1 hour with test compound in DMEM at a final DMSO concentration of 0.25%. […] The lysate was stored at −80° C. until ready for assay. Phospho-KDR was measured using a phospho-KDR kit (Catalog #K151BOC) purchased from Meso Scale Diagnostics (Rockville, Md.) according to the manufacturer's instructions. […]
pIC50: −log10 of the molar value. Structures can show the parent of a compound that is named as a salt.
VALUE_TYPE: pIC50

Worked examples follow.
COMPOUND	pIC50
Cn1cc(-c2cc(-c3ccc(N4CCN(C(=O)N5CCC(F)CC5)CC4)nc3)c3c(C#N)cnn3c2)cn1	5.65
CC(C)[C@@H](O)C(=O)N1CC2(CCN(c3ccc(-c4cc(-c5cnn(C)c5)cn5ncc(C#N)c45)cn3)CC2)C1	6.24
Cn1cc(-c2cc(-c3ccc(N4CCN(C(=O)N5CCC6(CC6)C5)CC4)nc3)c3c(C#N)cnn3c2)cn1	6.45

a: Cn1cc(-c2cc(-c3ccc(N4CCC(C(=O)NCC(F)(F)F)CC4)nc3)c3c(C#N)cnn3c2)cn1
b: CC(C)C(C(=O)N1CCN(c2ccc(-c3cc(-c4cnn(C)c4)cn4ncc(C#N)c34)cn2)CC1)c1ccccc1 (stereo not drawn)
### Prompt Please indicate which entry, a or b , has the lower recorded pIC50 value. Answer = label.
### Response b
(b: 6.22, a: 6.99)

A: Cn1cc(-c2cc(-c3ccc(N4CCN(C(=O)NC5CCOCC5)CC4)nc3)c3c(C#N)cnn3c2)cn1
B: Cn1cc(-c2cc(-c3ccc(N4CCN(C(=O)CO)CC4)cc3)c3c(C#N)cnn3c2)cn1 [Example 293, hydrochloride]
### Prompt A or B : whose pIC50 is greater? Give the chosen item's label as your response.
### Response B

---

target: human KDR protein in HEK-293 cells (Homo sapiens (Human), UniProt P35968); assay: KDR Cell Assay (phospho-KDR in HEK-293 cells expressing inducible KDR); type: cell-based; details: pKDR Cell HEK 10% FBS IC50, HEK-293 cells expressing inducible KDR, VEGF stimulated, 10% FBS
Structures can show the parent of a compound that is named as a salt.
VALUE_TYPE: pIC50
Here pIC50 is given on a logarithmic scale as minus log10 of the concentration in mol/L.

These solved cases illustrate the format of a correct answer.
COMPOUND	pIC50
Cn1cc(-c2cc(-c3ccc(N4CCN(C(=O)C(c5ccccc5)N5CCCCC5)CC4)nc3)c3c(C#N)cnn3c2)cn1 (stereo not shown) [Example 368, bis(2,2,2-trifluoroacetate)]	5.73
CC(C)C(O)CN1CCN(c2ccc(-c3cc(-c4cnn(C)c4)cn4ncc(C#N)c34)cn2)CC1 (stereo not shown) [Example 160]	6.72
Cn1cc(-c2cc(-c3ccc(N4CCN(C(=O)[C@H](N)c5ccccc5)CC4)nc3)c3c(C#N)cnn3c2)cn1 [Example 48, trifluoroacetate]	6.21

Lab note: next compound to report on.
### Prompt I'm curious: which pIC50 was measured for Cn1cc(-c2cc(-c3ccc(N4[C@@H]5CC[C@H]4C[C@@H](O)C5)nc3)c3c(C#N)cnn3c2)cn1 [Example 199] tested on human KDR protein in HEK-293 cells (Homo sapiens (Human), UniProt P35968)?
### Response 6.25

Just for reference, patent US10023570B2 is where these values come from.
